Just for reference, patent US7897602B2 is where these values come from.

Biological target: Aurora A kinase (Homo sapiens, UniProt O14965)
Construct: purchased Upstate
Sequence (O14965 1-403): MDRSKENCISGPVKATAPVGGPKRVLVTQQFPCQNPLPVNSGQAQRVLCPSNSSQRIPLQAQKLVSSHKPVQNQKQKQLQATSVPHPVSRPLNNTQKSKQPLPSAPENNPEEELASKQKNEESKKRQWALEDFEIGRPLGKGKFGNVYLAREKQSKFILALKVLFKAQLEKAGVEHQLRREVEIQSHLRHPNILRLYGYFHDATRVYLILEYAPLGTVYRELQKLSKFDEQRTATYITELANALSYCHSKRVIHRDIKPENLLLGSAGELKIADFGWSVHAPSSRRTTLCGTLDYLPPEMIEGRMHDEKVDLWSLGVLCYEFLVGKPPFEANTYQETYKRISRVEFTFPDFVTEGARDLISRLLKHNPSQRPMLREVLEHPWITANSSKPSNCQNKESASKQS
Test: Aurora A kinase assay ([γ-33P]ATP, CHOCKtide substrate)
Format: biochemical
Details: 1.0 μM test compound
Reported values of inhibition at 1 µM for individual entries
Number in %, nothing else.

COc1ccc(NC(=O)Nc2ccc3c(c2)/C(=C/c2[nH]c4c(c2CCC(=O)O)C(=O)CCC4)C(=O)N3)cc1 ... 75.2
O=C(O)CCc1c(/C=C2\C(=O)Nc3cc(Br)ccc32)[nH]c2c1C(=O)CCC2 ... 2.6
CCOC(=O)CCc1c(/C=C2\C(=O)Nc3ccc(NS(=O)(=O)c4ccccc4)cc32)[nH]c2c1C(=O)CCC2 ... 88.8
CCOC(=O)CCc1c(/C=C2\C(=O)Nc3ccc(NCc4ccccc4)cc32)[nH]c2c1C(=O)CCC2 ... 70.7
CCOC(=O)CCc1c(/C=C2\C(=O)Nc3cc(-c4ccc(O)cc4)ccc32)[nH]c2c1C(=O)CCCC2 ... 8.9

What value of inhibition at 1 µM has been recorded for this entry: "CCOC(=O)CCc1c(/C=C2\C(=O)Nc3ccc(NC(=O)Nc4ccc(Cl)c(C(F)(F)F)c4)cc32)[nH]c2c1C(=O)CCC2"
12.6
